# pERK Emax (%) per entry
Molecular target: T1, human MIC-1 receptor (hGFRAL, GDNF family receptor alpha like) (human, UniProt Q6UXV0 19-394)
T1 sequence (looked up): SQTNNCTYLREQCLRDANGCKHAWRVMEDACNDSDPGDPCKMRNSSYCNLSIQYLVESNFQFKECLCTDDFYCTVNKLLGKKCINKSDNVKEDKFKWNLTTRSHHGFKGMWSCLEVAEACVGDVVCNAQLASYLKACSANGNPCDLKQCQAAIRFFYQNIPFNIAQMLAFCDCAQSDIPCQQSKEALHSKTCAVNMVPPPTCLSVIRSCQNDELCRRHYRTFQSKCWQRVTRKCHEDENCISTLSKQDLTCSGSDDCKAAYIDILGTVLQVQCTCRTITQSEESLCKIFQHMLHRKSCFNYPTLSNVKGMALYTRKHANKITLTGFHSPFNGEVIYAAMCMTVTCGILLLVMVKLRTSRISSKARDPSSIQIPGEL
Assay: cell-based or functional assay
The number alone won't do; follow it with the unit.

Challenge: Query: pERK Emax (%); subject: MIC-1(R2A, N3E, K107E) (ligand) AAEGDHCPLGPGRCCRLHTVRASLEDLGWADWVLSPREVQVTMCIGACPSQFRAANMHAQIKTSLHRLKPDTVPAPCCVPASYNPMVLIQKTDTGVSLQTYDDLLAEDCHCI
Response given: 100%

Challenge: Query: pERK Emax (%); subject: MIC-1(R2A, N3E, K69E) (ligand) AAEGDHCPLGPGRCCRLHTVRASLEDLGWADWVLSPREVQVTMCIGACPSQFRAANMHAQIKTSLHRLEPDTVPAPCCVPASYNPMVLIQKTDTGVSLQTYDDLLAKDCHCI
Response given: 100%

Challenge: Query: pERK Emax (%); subject: (SEPATSGSETPG)2-MIC-1-Δ1-3 (ligand) SEPATSGSETPGSEPATSGSETPGGDHCPLGPGRCCRLHTVRASLEDLGWADWVLSPREVQVTMCIGACPSQFRAANMHAQIKTSLHRLKPDTVPAPCCVPASYNPMVLIQKTDTGVSLQTYDDLLAKDCHCI
Response given: 100%
